Reference source for all entries: ChEMBL document CHEMBL1155427

biological target: D(2) dopamine receptor (Homo sapiens, UniProt P14416); test: Displacement of [3H]spiperone from human recombinant dopamine D2L receptor expressed in HEK293 cells by microplate scintillation counting
Sequence (P14416 whole entry): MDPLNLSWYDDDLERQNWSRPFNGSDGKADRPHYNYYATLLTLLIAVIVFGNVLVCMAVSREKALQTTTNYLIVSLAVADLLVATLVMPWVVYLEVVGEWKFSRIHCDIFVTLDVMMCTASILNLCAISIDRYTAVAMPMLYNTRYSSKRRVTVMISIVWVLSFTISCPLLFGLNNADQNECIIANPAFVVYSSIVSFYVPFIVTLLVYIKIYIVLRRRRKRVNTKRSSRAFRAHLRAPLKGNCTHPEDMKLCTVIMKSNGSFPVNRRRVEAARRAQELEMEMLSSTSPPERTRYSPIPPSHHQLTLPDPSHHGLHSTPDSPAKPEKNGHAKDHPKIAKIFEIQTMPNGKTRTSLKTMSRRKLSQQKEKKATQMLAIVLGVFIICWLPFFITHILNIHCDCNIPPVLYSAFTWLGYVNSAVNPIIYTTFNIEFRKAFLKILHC
Documented Ki across a set of compounds
API: value field is a number in µM; no unit string.

Exam item: Requested read-out: Ki. Entry: c1ccc2c(c1)CCN1CCc3cccc4[nH]cc(c34)C21 (stereo not given)
Marked response: 4.46

Exam item: Looking for the measured Ki of c1ccc2c(c1)CCN1CCc3[nH]c4ccccc4c3C21 (stereo not given) , can you help?
Marked response: 1.48

Exam item: Record request: Ki value, item `CN1CCc2ccccc2Cc2c([nH]c3ccccc23)CC1`
Marked response: 0.0551

Now let's try a different one.
Exam item: What value of measured Ki is listed for `CN1CCc2ccccc2Cc2c[nH]c3cccc(c23)CC1` ?
Marked response: 0.004
